Consider the following molecules; for each one, report its Ki.
molecular target: HCV NS3-NS4A protease (tNS3 with KK4A) (Hepatitis C virus genotype 1a, UniProt P27958); assay: HCV Ki assay (HPLC microbore separation of 5AB substrate and products); type: biochemical; settings: 25 nM tNS3, 25 μM KK4A, 25 μM 5AB substrate, 20 min at 30 C; read-out: Ki
Sequence (P27958 1027-1208): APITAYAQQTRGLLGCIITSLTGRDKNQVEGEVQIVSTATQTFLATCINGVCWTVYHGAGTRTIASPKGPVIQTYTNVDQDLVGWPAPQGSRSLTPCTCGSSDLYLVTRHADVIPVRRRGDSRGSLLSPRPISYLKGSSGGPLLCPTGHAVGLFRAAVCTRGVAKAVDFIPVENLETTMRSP
*1 amine or outer side, *2 acyl side, *3 side chain or, on linkers, in order; H or OH if unused. Where a SMILES comes first, the peptide text is derived from it. [ ]: non-standard residue; d: D form. The star is where a group is joined. ξ: configuration not given here. Pro(3S-Et) = CC[C@H]1CCN[C@@H]1C(=O)O; Pyrazinecarbonyl = O=C(c1cnccn1)*; X1 = CCCC(N[*:1])C(=O)C(=O)[*:2]; Ile(3ξ) = CCC(C)[C@H](N)C(=O)O

Worked cases, Ki given:
CCCC(NC(=O)[C@@H]1[C@@H](C2CCCCC2)CCN1C(=O)[C@@H](NC(=O)[C@@H](NC(=O)c1cnccn1)C1CCCCC1)C(C)(C)C)C(=O)C(=O)N[C@@H](C)c1ccccc1 (stereo partly shown) [Compound 62] :: < 100 nM
CCCC(NC(=O)[C@@H]1[C@@H](CC)CCN1C(=O)[C@@H](NC(=O)[C@@H](NC(=O)c1cnccn1)C(C)C)C(C)CC)C(=O)C(=O)N[C@@H](Cc1ccccc1)C(=O)O (stereo partly drawn) [Compound 30] (Pyrazinecarbonyl-V[Ile(3ξ)][Pro(3S-Et)][X1]F-OH) :: 100 to 500 nM
CCC[C@H](NC(=O)[C@@H]1[C@@H](C2CCCCC2)CCN1C(=O)[C@@H](NC(=O)[C@@H](NC(=O)c1ncc[nH]1)C1CCCCC1)C(C)(C)C)C(=O)C(=O)NC1CC1 [Compound 68] :: < 100 nM

# batch: return Ki for each of the 2 molecules below
1. CCC[C@H](NC(=O)[C@@H]1[C@@H](C2CCCCC2)CCN1C(=O)[C@@H](NC(=O)[C@@H](NC(=O)c1cnccn1)C1CCCCC1)C(C)(C)C)C(=O)C(=O)N[C@@H](C)C1CCCCC1 [Compound 67]
2. CCCC(NC(=O)[C@@H]1[C@@H](CC)CCN1C(=O)[C@@H](NC(=O)[C@@H](NC(=O)c1ncc[nH]1)C1CCCCC1)C(C)C)C(=O)C(=O)NC1CC1 (stereo partly shown) [Compound 53]

> 500 nM
100 to 500 nM
